experiment-summary: qHTS assay to identify small molecule agonists of the NFkB signaling pathway (AID 1159509); note: % is set by controls: 0 for no effect and ±100 for the full control effect
recorded-conditions: NFkB-bla ME-180 cells, beta-lactamase FRET ratio, 5 h; series mostly up to 61 µM
Results filed as inconclusive are left out. The source made the active and inactive calls. Calls come from the whole dose curve; as a rule, active = well fitted curve in the direction sought with a large enough effect in the signal ratio in the repeat runs (not every such curve was filed as active); inconclusive = weak or mixed curves, or a change in a side signal; inactive = no such curve, though single readings can be large or run the other way; the % refers to the signal ratio.
readout: activation

# example entries with known answers
1) C(/C=C/C=C/Nc1ccccc1)=Nc1ccccc1	inactive
2) CC(C)(C)NCC(O)COc1ccc(NC(=O)NC2CCCCC2)cc1 (configuration not stated)	inactive
3) FC(F)(Cl)C(F)(Cl)Cl	inactive
4) O=P(c1ccccc1)(c1ccccc1)c1ccccc1	inactive

**Query** Quick one: give measured activation for C=Cc1ccc(C=C)cc1
**Result** inactive

**Query** Quick one: give measured activation for S=c1[nH][nH]c(=S)s1
**Result** inactive

**Query** Quick one: give measured activation for O=C1c2ccccc2C(=O)C1c1ccc2ccccc2n1
**Result** inactive

**Query** Quick one: give measured activation for CC(=O)c1cccnc1
**Result** inactive

**Query** Quick one: give measured activation for CC(C)CCCCCOC(=O)CS
**Result** inactive

**Query** Quick one: give measured activation for CC(C)C[C@H](NC(=O)[C@H](Cc1ccccc1)NC(=O)c1cnccn1)B(O)O
**Result** inactive

**Query** Quick one: give measured activation for O=C(O)c1ccncc1
**Result** inactive

**Query** Quick one: give measured activation for CCOC(=O)CC(O)(CC(=O)OCC)C(=O)OCC
**Result** inactive

**Query** Quick one: give measured activation for O=C(c1ccco1)N1CCNCC1
**Result** inactive

**Query** Quick one: give measured activation for O=C(N[C@@H](Cc1ccccc1)[C@@H](O)C(=O)N1C[C@@H](O)[C@@H](O)C1)c1cc2cc(Cl)ccc2[nH]1
**Result** inactive

**Query** Quick one: give measured activation for CCCCCCCCCCCCSC#N
**Result** inactive

**Query** Quick one: give measured activation for O=[N+]([O-])c1ccccc1CCO
**Result** inactive

**Query** Quick one: give measured activation for NC(=O)c1ccccc1C(N)=O
**Result** inactive

---

experiment-summary: qHTS assay to identify small molecule agonists or antagonists of the thyroid stimulating hormone receptor (TSHR) signaling pathway - wild type cell line counter screen (AID 1259384); note: % is set by controls: 0 for no effect and ±100 for the full control effect
recorded-conditions: HEK293 wild type, cAMP HTRF counter-screen, active compounds read high; series mostly up to 92.4 µM
Results filed as inconclusive are left out. Activity calls are given as the source filed them. Calls follow the shape of the full dose curve.
readout: cAMP activity change

1. Cc1cc(SC2=C(O)C[C@@](CCc3ccc(N)cc3)(C(C)C)OC2=O)c(C(C)(C)C)cc1CO	inactive
2. Cc1cc(N)n(-c2ccccc2)n1	inactive
3. O=C(O)c1ccc2c(c1)nc(C(=O)NC1CCN(C3CC3)CC1)n2Cc1cc(-c2ccc(Cl)s2)on1	1.96% [at 18.9 µM] (inactive)
4. Cc1ccc(NC(=O)c2ccc(CN3CCN(C)CC3)cc2)cc1Nc1nccc(-c2cccnc2)n1	inactive

**Query** Quick one: give measured cAMP activity change for COC=O
**Result** -7.06% [at 8.39 µM] (inactive)

**Query** Quick one: give measured cAMP activity change for O=P(c1ccccc1)(c1ccccc1)c1ccccc1
**Result** inactive

**Query** Quick one: give measured cAMP activity change for O=C(O)c1ccccc1-n1cc(C(=O)O)c(=O)c2cc(Nc3c(F)cc(F)cc3Cl)c(Cl)cc21
**Result** inactive

**Query** Quick one: give measured cAMP activity change for Cc1ccc(S(=O)(=O)NC(=O)NC2CCCC2)cc1
**Result** inactive

**Query** Quick one: give measured cAMP activity change for Nc1ncnc2c1ncn2[C@@H]1O[C@H](CO)[C@@H](O)[C@H]1O
**Result** inactive

**Query** Quick one: give measured cAMP activity change for COC(=O)C(C)(C)C
**Result** inactive

**Query** Quick one: give measured cAMP activity change for CCCCCO
**Result** inactive

**Query** Quick one: give measured cAMP activity change for CO[C@@H]1COCC[C@@H]1N[C@@H]1CC[C@@](C(=O)N2CCc3ncc(C(F)(F)F)cc3C2)(C(C)C)C1
**Result** inactive

**Query** Quick one: give measured cAMP activity change for CCC(C)CCCC(C)(C)O (stereo unspecified)
**Result** inactive

---

experiment-summary: A CellTox Green Cytotoxicity Assay to monitor cytotoxicity in HepG2 cells - 24 hour (AID 1224878); note: % is set by controls: 0 for no effect and ±100 for the full control effect; nearly all actives have a fitted effect of over 45% in size
recorded-conditions: CellTox Green fluorescence; series mostly up to 76.8 µM
Results filed as inconclusive are left out. Active and inactive are the calls of the source. Calls come from the whole dose curve; as a rule, active = well fitted activation curve with a large enough effect in the repeat runs; inconclusive = weak or mixed curves; inactive = flat fitted curve, though single readings scatter.
readout: outcome

# example entries with known answers
1. Cc1ccccc1CCO	inactive
2. C[C@@H](O)[C@H]1C(=O)N2C(C(=O)O)=C(S[C@@H]3CN[C@H](CNS(N)(=O)=O)C3)[C@H](C)[C@H]12	inactive
3. CC(=O)Nc1ccn(C2COC(COC(=O)c3ccccc3)O2)c(=O)n1 (configuration not stated)	inactive
4. N#C[C@@H]1CC(F)(F)CN1C(=O)CNC1CC2CCC(C1)N2c1ncccn1 (some centres not stated)	inactive
5. CC[C@H](NC(C)C)[C@H](O)c1ccc(O)c2[nH]c(=O)ccc12	inactive

**Query** Quick one: give measured outcome for CCC1=C(C)CN(C(=O)NCCc2ccc(S(=O)(=O)NC(=O)NC3CCC(C)CC3)cc2)C1=O (configuration not stated)
**Result** inactive

**Query** Quick one: give measured outcome for C=C[Si](OCC)(OCC)OCC
**Result** inactive

**Query** Quick one: give measured outcome for CCC(C)CCCC(C)(C)O (configuration not stated)
**Result** inactive

**Query** Quick one: give measured outcome for COc1cc(CNC(=O)CCCC/C=C/C(C)C)ccc1O
**Result** inactive

---

experiment-summary: Caspase-3/7 induction in HepG2 cells by small molecules, qHTS cell viability counter screen (AID 1346981); note: % is set by controls: 0 for no effect and ±100 for the full control effect; nearly all actives have a fitted effect of over 30% in size
recorded-conditions: CellTiter-Fluor fluorescence, 17 h; series mostly up to 92.4 µM
Records with an inconclusive call do not appear. Active and inactive are the calls of the source. Calls come from the whole dose curve; as a rule, active = well fitted cell-killing curve with a large enough effect in the repeat runs; inconclusive = weak or mixed curves, or effect the other way; inactive = flat fitted curve, though single readings scatter.
Bench note: report the call from true (1) (active), false (0) (inactive)

Known results for compounds:
1. CO[C@@H]1[C@@H](O[C@@H]2O[C@H](C)[C@@H](O[C@H]3C[C@@](C)(O)[C@@H](O)[C@H](C)O3)[C@H](N(C)C)[C@H]2O)[C@@H](CC=O)C[C@@H](C)[C@@H](O[C@@H]2CC[C@H](N(C)C)[C@@H](C)O2)/C=C/C=C/C[C@@H](C)OC(=O)C[C@H]1OC(C)=O	false (0)
2. CC(C)Oc1ccccc1O	false (0)
3. CCCCCCCCS	false (0)
4. O=C(O)c1cc(C(=O)O)cc([N+](=O)[O-])c1	false (0)
5. OCCc1ccncc1	false (0)

Field: next compound
**Query** Could you please tell me the result logged for CCCC1CCOC(C)S1 (stereo not drawn) in this assay?
**Result** false (0)

---

test-target: Luciferin 4-monooxygenase (Photinus pyralis)
experiment-summary: qHTS assay to identify small molecule inhibitors of firefly luciferase (AID 1224835); note: nearly all actives have a fitted effect of over 25% in size
recorded-conditions: purified P. pyralis luciferase, luminescence inhibition; series mostly up to 115 µM
Inconclusive results are not listed. Activity calls are given as the source filed them. Calls come from the whole dose curve; as a rule, active = well fitted inhibition curve with a large enough effect in the repeat runs; inconclusive = weak or mixed curves; inactive = flat fitted curve, though single readings scatter.
Bench note: report the call from class 1 (active), class 0 (inactive)

**Query** Could you please tell me the result logged for CCCc1nc(C)c2c(=O)[nH]c(-c3cc(S(=O)(=O)N4CCN(CC)CC4)ccc3OCC)nn12 in this assay?
**Result** class 0

**Query** Could you please tell me the result logged for CCC[Si](OC)(OC)OC in this assay?
**Result** class 0

**Query** Could you please tell me the result logged for CCC(CC)C(=O)O in this assay?
**Result** class 0

**Query** Could you please tell me the result logged for COc1ccc(C(=O)c2ccc(C)cc2)c(O)c1 in this assay?
**Result** class 1

**Query** Could you please tell me the result logged for Cc1cc(N)n(-c2ccccc2)n1 in this assay?
**Result** class 0

**Query** Could you please tell me the result logged for C[C@H](CN1CCCC1)C(=O)c1ccc(C(F)(F)F)cc1 in this assay?
**Result** class 0

**Query** Could you please tell me the result logged for CC(=O)CC/C=C(\C)CC/C=C(\C)CC/C=C(\C)CCC=C(C)C in this assay?
**Result** class 0

**Query** Could you please tell me the result logged for O=P(c1ccccc1)(c1ccccc1)c1ccccc1 in this assay?
**Result** class 0

---

experiment-summary: qHTS assay to identify small molecule antagonists of the constitutive androstane receptor (CAR) signaling pathway - cell viability counter screen (AID 1224837); note: % is set by controls: 0 for no effect and ±100 for the full control effect; nearly all actives have a fitted effect of over 45% in size
recorded-conditions: HepG2-CYP2B6-hCAR viability, CellTiter-Fluor, 23 h, co-treated with 50 nM CITCO; series mostly up to 92.4 µM
Results filed as inconclusive are left out. Activity calls are given as the source filed them. Calls follow the shape of the dose curve; as a rule, active = well fitted cell-killing curve with a large enough effect in the repeat runs; inconclusive = weak or mixed curves, or effect the other way; inactive = flat fitted curve, though single readings scatter.
readout: activity change, negative = cytotoxicity

# example entries with known answers
1) C1CCN(CN2CCCCC2)CC1	inactive
2) CC1=C(C)C(=O)C(CCCCC#CCCCC#CCO)=C(C)C1=O	inactive
3) CCCCOC(=O)C(C)Oc1ccc(Oc2ccc(C(F)(F)F)cn2)cc1 (configuration not stated)	inactive
4) CCCCCCCCCCCCCCCCCCCl	3.1% [at 8.39 µM] (inactive)

**Query** Quick one: give measured activity change, negative = cytotoxicity for O=Cc1ccc(Cl)c([N+](=O)[O-])c1
**Result** inactive

**Query** Quick one: give measured activity change, negative = cytotoxicity for CC1=CC(=C(c2ccc(N)cc2)c2ccc(N)cc2)C=CC1=N
**Result** -13.7% [at 8.39 µM] (inactive)

**Query** Quick one: give measured activity change, negative = cytotoxicity for CC(C)=CCC/C(C)=C/C=N/O
**Result** inactive

Attribution: PubChem BioAssay (Tox21)
